- system tested: GST-Xa-hAAK1 (Homo sapiens)
- Construct: GST (N); Factor Xa cleavage site (Xa) (internal)
- procedure text: AAK1 Kinase Assay
- experimental conditions: bacterially expressed GST-Xa-hAAK1 3.5 nM; ATP 22 μM; fluoresceinated peptide 1.5 μM; 3 hours at room temperature; Caliper LabChip 3000
# class assignment by measured IC50: band 1: < 1 nM; band 2: ≥ 1 nM and < 20 nM; band 3: ≥ 20 nM

Assign a category based on measured IC50 for `CC(C)C[C@](C)(N)COc1ccc(-c2cnn3cccnc23)cc1C(F)(F)F` and give only the class name.
band 3

Just checking, what class would you give `CC(C)C[C@@](C)(N)COc1ncc(-c2ccnc3ccnn23)cc1Cl` here?
band 3

Exam item: assign `CC(C)C[C@](C)(N)COc1ccc(-c2ccnc3cc(C4CC4)nn23)cc1Cl` to the correct category.
band 2

Into which bin does this molecule go? `CC(C)C[C@](C)(N)COc1ccc(-c2ccnc(NC(=O)c3cnn[nH]3)c2)cc1C(F)(F)F`
band 1

Category of `CC(C)C[C@](C)(N)COc1ccc(-c2ccnc3c2CC(=O)N3)cc1C#N` , please.
band 2

Quick check: band for `CC(C)C[C@](C)(N)COc1ccc(-c2ccnc3c2C(=O)NC3)cc1C(F)(F)F`
band 2

Note: place this molecule into its band. Item: `Cc1nc(-c2ccnc3ccnn23)ccc1OC[C@@](C)(N)CC(C)C`
band 2

Would you mind sorting `CC(C)C[C@](C)(N)COc1ccc(-c2ccnc3c2C(=O)NC3)cc1F` into the appropriate category?
band 3

State the class of the molecule shown: `CC(C)C[C@](C)(N)COc1ccc(-c2ccnc(NC(=O)C3CC3)c2)cc1C(F)(F)F`
band 1

Please report the category associated with `CC(C)C[C@](C)(N)COc1ccc(-c2ccnc(NC(=O)c3cccs3)c2)cc1C(F)(F)F` , nothing else.
band 1

For this molecule, which bin applies? `Cc1nc2c(-c3ccc(OC[C@@](C)(N)CC(C)C)c(C#N)c3)ccnc2[nH]1`
band 2

Where would `CC(=O)Nc1cc(-c2ccc(OC[C@@](C)(N)CC(C)C)c(F)c2)n2nccc2n1` land among the classes by reported IC50?
band 3

# bin label for `Cc1cc(-c2ccnc3ccn(C)c23)ccc1OC[C@@](C)(N)CC(C)C`
band 3

Which class is correct for the following molecule? `CC(C)C[C@](C)(N)COc1ccc(-c2ccnc3cc(C(F)(F)F)nn23)cc1C#N`
band 2

Class label required: `Cc1cn2nccc(-c3ccc(OC[C@@](C)(N)CC(C)C)c(C)n3)c2n1`
band 2

Class label required: CC(C)C[C@](C)(N)COc1ccc(-c2ccnc(NC3CCCOC3)c2)cc1Cl (single isomer, unassigned) [Example 339]
band 2

---

- system tested: GST-Xa-hAAK1 (Homo sapiens, UniProt Q2M2I8)
- Construct: GST (N); Factor Xa cleavage site (Xa) (internal)
- Sequence (Q2M2I8 whole entry): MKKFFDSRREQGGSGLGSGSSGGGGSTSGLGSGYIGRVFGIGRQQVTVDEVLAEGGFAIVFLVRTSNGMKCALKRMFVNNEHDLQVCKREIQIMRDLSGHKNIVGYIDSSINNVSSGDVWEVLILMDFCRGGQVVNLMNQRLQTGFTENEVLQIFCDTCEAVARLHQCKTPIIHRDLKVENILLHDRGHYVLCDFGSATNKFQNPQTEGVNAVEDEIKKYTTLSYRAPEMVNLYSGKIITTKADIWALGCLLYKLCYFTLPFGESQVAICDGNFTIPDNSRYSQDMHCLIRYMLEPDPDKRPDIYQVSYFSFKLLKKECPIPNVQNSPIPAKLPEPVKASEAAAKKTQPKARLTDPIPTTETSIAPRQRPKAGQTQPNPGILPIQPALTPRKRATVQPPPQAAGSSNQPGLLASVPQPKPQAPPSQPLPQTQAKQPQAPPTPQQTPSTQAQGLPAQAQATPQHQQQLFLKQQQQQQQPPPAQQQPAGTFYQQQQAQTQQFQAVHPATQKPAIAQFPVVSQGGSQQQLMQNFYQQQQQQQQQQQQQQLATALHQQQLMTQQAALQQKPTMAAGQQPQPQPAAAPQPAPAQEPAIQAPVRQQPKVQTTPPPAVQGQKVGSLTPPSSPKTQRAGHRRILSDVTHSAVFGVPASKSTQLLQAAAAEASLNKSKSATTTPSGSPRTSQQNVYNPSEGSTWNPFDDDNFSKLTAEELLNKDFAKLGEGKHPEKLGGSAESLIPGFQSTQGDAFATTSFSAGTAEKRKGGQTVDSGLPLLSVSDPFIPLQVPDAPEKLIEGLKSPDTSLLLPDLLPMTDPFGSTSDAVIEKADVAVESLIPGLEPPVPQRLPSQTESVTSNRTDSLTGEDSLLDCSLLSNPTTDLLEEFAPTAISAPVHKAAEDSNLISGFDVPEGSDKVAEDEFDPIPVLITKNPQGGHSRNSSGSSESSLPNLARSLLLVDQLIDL
- procedure text: AAK1 Kinase Assay
- experimental conditions: bacterially expressed GST-Xa-hAAK1 3.5 nM; ATP 22 μM; fluoresceinated peptide 1.5 μM; 3 hours at room temperature; Caliper LabChip 3000
pIC50: −log10 of the molar value.
# if value of pIC50 reaches 9, tag Condition met; if it stays below, tag Condition not met

Kindly determine if pIC50 recorded for Cc1cn2nc(Cl)cc(-c3ccc(OC[C@@](C)(N)CC(C)C)c(C(F)(F)F)c3)c2n1 [Example 495] is above or exactly 9.
Condition not met

Given CC(C)C[C@](C)(N)COc1ccc(-c2ccnc3ccnn23)cc1CF [Example 353] , state whether its pIC50 is at least 9.
Condition met

Exam item: decide whether the reported pIC50 for CC(C)C[C@](C)(N)COc1ccc(-c2ccnc(NCc3cccnc3)c2)cc1C(F)(F)F [Example 410] is at least 9.
Condition not met

Exam item: decide whether the reported pIC50 for COCc1nc2c(-c3ccc(OC[C@@](C)(N)CC(C)C)c(C)c3)ccnc2[nH]1 [Example 296] is at least 9.
Condition not met

Record CC(C)C[C@](C)(N)COc1ccc(-c2ccnc3c2C(=O)NC3)cc1C#N [Example 415] ; criterion: pIC50 no lower than 9. Met?
Condition not met

Given the entry CC(C)C[C@](C)(N)COc1ccc(-c2ccnn3ccnc23)cc1 [Example 281] , answer whether its pIC50 meets or surpasses 9.
Condition not met

Decide: is the reported value of pIC50 for CC(C)C[C@](C)(N)COc1ccc(-c2ccnn3ccnc23)cc1C#N [Example 287] equal to or greater than 9?
Condition met

---

- system tested: GST-Xa-hAAK1 (Homo sapiens, UniProt Q2M2I8)
- Construct: GST (N); Factor Xa cleavage site (Xa) (internal)
- procedure text: AAK1 Kinase Assay
- experimental conditions: bacterially expressed GST-Xa-hAAK1 3.5 nM; ATP 22 μM; fluoresceinated peptide 1.5 μM; 3 hours at room temperature; Caliper LabChip 3000
measured parameter: IC50 (nM)
State just the number; it will be interpreted in nM.

Value of IC50 reported for the compound `CC(C)C[C@](C)(N)COc1cc(F)c(-c2ccnc3ccnn23)cc1F` is 278

Documented IC50 of CC(C)C[C@](C)(N)COc1ccc(-c2cc(NC3CCCOC3)ncn2)cc1C(F)(F)F (stereo partly shown) : 385

So, `Cc1cc(-c2ccnc3cc(C4CC4)nn23)cnc1OC[C@](C)(N)CC(C)C` ? Its IC50 was 265

Lab note: `CC(C)C[C@](C)(N)COc1ccc(-c2cnn3cccnc23)cc1Cl` gave IC50 of 94

---

- system tested: GST-Xa-hAAK1 (Homo sapiens)
- Construct: GST (N); Factor Xa cleavage site (Xa) (internal)
- procedure text: AAK1 Kinase Assay
- experimental conditions: bacterially expressed GST-Xa-hAAK1 3.5 nM; ATP 22 μM; fluoresceinated peptide 1.5 μM; 3 hours at room temperature; Caliper LabChip 3000
Classify: 1.0 when IC50 is strictly less than 200 nM; 0.0 when IC50 is not.

Regarding Cc1csc(Nc2nccc(-c3ccc(OC[C@@](C)(N)CC(C)C)c(C#N)c3)n2)n1 [Example 380] , kindly confirm whether its IC50 is beneath 200 nM.
1.0

Problem: For the compound Cc1cc(-c2ccnc3[nH]c(N)nc23)ccc1OC[C@@](C)(N)CC(C)C [Example 259] , is IC50 under 200 nM?
0.0

In the record for CC(C)C[C@](C)(N)COc1ccc(-c2ccnc(Nc3nccs3)c2)cc1Cl [Example 257] , is IC50 less than 200 nM?
1.0

Problem: For the compound CC(C)C[C@](C)(N)COc1ccc(-c2ccnc(NC(=O)C3CCC3)c2)cc1C(F)(F)F [Example 390] , is IC50 under 200 nM?
1.0

Does the reported IC50 of CC(C)C[C@](C)(N)COc1ccc(-c2cc(N)nc3ccnn23)cc1F [Example 457] stay below 200 nM?
1.0

Below 200 nM on IC50? Entry Cc1cc(-c2ccc(OC[C@@](C)(N)CC(C)C)c(Cl)c2)n2nc(C)cc2n1 [Example 459]
0.0

Just wondering, is IC50 of CC(C)C[C@](C)(N)COc1ccc(-c2ccnc3c2cnn3C)cc1F [Example 289] below 200 nM?
1.0

Please let me know if CC(C)C[C@](C)(N)COc1ccc(-c2ccnc3ccnn23)c2scnc12 [Example 341] shows IC50 below 200 nM.
0.0

---

- system tested: GST-Xa-hAAK1 (Homo sapiens, UniProt Q2M2I8)
- Construct: GST (N); Factor Xa cleavage site (Xa) (internal)
- procedure text: AAK1 Kinase Assay
- experimental conditions: bacterially expressed GST-Xa-hAAK1 3.5 nM; ATP 22 μM; fluoresceinated peptide 1.5 μM; 3 hours at room temperature; Caliper LabChip 3000
For each of the molecules below, state its pIC50.
Units for pIC50: none; it is -log10 of a concentration expressed in mol/L.

Record summary for Cc1nc(-c2ccnc3ccnn23)ccc1OCC(N)(CC(C)C)C(F)(F)F (centres unmarked) : reported pIC50 = 7.43

Per the records, this molecule ( `CC(C)C[C@](C)(N)COc1ccc(-c2ccnc3[nH]c(N)nc23)cc1C#N` ) has pIC50 equal to 7.66

Note to self: pIC50 recorded for `COCc1nc2c(-c3ccc(OC[C@@](C)(N)CC(C)C)c(C(F)(F)F)c3)ccnc2[nH]1` was 7.66

Note to self: pIC50 recorded for `Cc1n[nH]c(C)c1-c1ccc(OC[C@@](C)(N)CC(C)C)c(F)c1` was 6.51

response.value for CC(C)C[C@](C)(N)COc1ccc(-c2ccnc(NC3CCCOC3)c2)cc1C(F)(F)F (single isomer, unassigned) [Example 476] (field: pIC50) = 6.90

Entry `CC(C)C[C@](C)(N)COc1ccc(-c2ccnc3c2CC(=O)N3)cc1C(F)(F)F` — recorded pIC50 = 9.22

molecule `Cc1csc(Nc2cc(-c3ccc(OC[C@@](C)(N)CC(C)C)c(Cl)c3)ccn2)n1` , pIC50 observed: 8.72

Lab book: pIC50 of `CC(C)C[C@](C)(N)COc1ccc(-c2ccnc3[nH]c(N)nc23)cc1C(F)(F)F` noted as 7.38
